Below, each entry is listed with its recorded self-cleavage.
B1: CPEB3 Ribozyme (parent)
chain: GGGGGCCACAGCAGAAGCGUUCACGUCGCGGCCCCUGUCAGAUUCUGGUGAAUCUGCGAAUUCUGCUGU

# Variants of: B1
# ASSAY METHOD TEXT: self-cleavage, relative activity (ratio to wild type); higher = more cleavage; co-transcriptional
No unit in the answer, please; the number alone is enough.

{"RESIDUE CHANGE": "C6A G11C", "self-cleavage": 0.29}
{"RESIDUE CHANGE": "C33U", "self-cleavage": 0.994}
{"RESIDUE CHANGE": "U64A G68A", "self-cleavage": 0.99}
{"RESIDUE CHANGE": "G11C C35A", "self-cleavage": 0.205}
{"RESIDUE CHANGE": "C27G U55C", "self-cleavage": 0.137}

Notebook: U53G G68U , self-cleavage read as 0.986

The recorded self-cleavage for C27G A51C is 0.187

Documented self-cleavage of G2A A60U : 0.0695

What the record says about C12G U44A : self-cleavage is 0.727

The variant listed as G14U C24A has a reported self-cleavage of 0.249

Documented self-cleavage of C34U U55C : 0.823

// self-cleavage value for G19U G47A : 0.655

Reported self-cleavage for G5C G14A was 0.0874

# variant G41U U67G ; its self-cleavage = 0.865

Just so you know, measured self-cleavage for G1A G41A came out at 0.0513

What the record says about A8C U43A : self-cleavage is 0.971

Cited source for all entries: the RNAGym collection of RNA variant scans (doi:10.7554/elife.80360)
